assay.protocol: yeast display, Sf9 membrane polyspecificity reagent, FACS + sequencing; frameworks hold sequencing errors
test.readout: polyreactivity (PSR sort gate)

1. QVQLVESGGGLVQAGGSLRLSCAASGLTFVEYAMGWYRQAPGKEREFVAAIRSRGGSTYYADSVKGRFTISRDNAKNTVYLQMNSLKPEDTAVYYCTADGYFWGQGTQVTVSS: low polyreactivity
2. QVQLVESCGGLVQAGGSLRLSCAASGYIFLYNTMGWYRQAPWKERELVAAISFRAGSTYYADSVKGRFTISRDNAMNTVYLQMNSLKPEDTAVYYCAKRQRYYLYGHDYWGQGTQVTVSS: low polyreactivity
3. QVQLVESGGGLVQAGGSLRLSCAASGITFYFYAMGWYRQAPGKERELVASITSSGSTDYADSVKGRFTISRDNAKNTVYLQMNSLKPEDTAVSYCAADVQKHFYSFGDERGFPFDYWGQGTQVTVSS: low polyreactivity
4. QGQLVESGGGLVQAGGSLRLSCAASGLTLYYYAMGWYIQAPGKERELVAAINRGGSTYYADSVKGRFTISRDNAKNTVYLQMNSLKPEDTAVYYCAVDYGVRDLTYYYWGQGTQVTVSS: low polyreactivity
5. QVQLVESGGGLVQAGGSLRLSCAASGSTLVLNAMGWYRPATGKERELVAAITISGDTTYYADSVKGRFTISRDNAKNTVYLQMNCLKPEDTAVYYCAAVVSTVDCMEYWGQGTQVTVSS: low polyreactivity
6. QVQLVESGGGLVQAGGSLRLSCAASGSILLYYTMGWYRQAPGKERELVASITSGGRTYYADSVKGRFTISRDNAKNTVYLQMNSLKPEDTAVYYCAADVWKLYDYWGQGTQVTVSS: low polyreactivity
7. QVQLVESGGGLVQAGGSLRLSCAASGFIFDEYAMGWYRQAPGKERELVAAISWSGSRTYYADSVKGRFTISRDNAKNTVYLQMNRLKPEDTSVYYCAKVTGVVAGRRNYWGQGTQVTVSS: low polyreactivity
8. QVQLVESGGGLVQAGGSLRLSCAASGSIFNVYAMGWYRQAPGKERELVAAISSSGARTYYADSVKGRFTISRDNAKNTVYLQMNSLKPEDTAVYYCAARSILIRSGGGYPSVWRNYWGQGTQVTVSS: high polyreactivity
9. QVQLVDSGGGSVQAGGSLRLSCAASGSTFYENAMGWYRQAPGKERELVAAITWSGGRTYYADSVKGRFTISRDNAKNTVYLQMYSLKPEDTAVYYCNARERSRKFYYWGQGTQVTVSS: high polyreactivity
10. QVQLVESGGGLVQAGGSLRLSCAASGRTFDVYAMGWYRPAPGKERELVAAITSGGSTYYADSVKGRYTISRDNAKNTVFLLINSLKPEDTAVYYCATDVDKSLYDYWGQGTQVTVSS: low polyreactivity
11. QVQLVESGGGLVQAGGSLRLSCAASGITFYFYVMGWYRQAPGKERELVADISTSDDSTYYADSVKGRFTISRDNAKNTVYLQMNSLKPEDTAVYYCATATRTYSAWYEYDYWGQGTQVTVSS: low polyreactivity

* * *

assay.protocol: yeast display, Sf9 membrane polyspecificity reagent, FACS + sequencing; frameworks hold sequencing errors
test.readout: polyreactivity (PSR sort gate)

1. QDQLVESGGGLLQAGGSLRLSCAASGRTFNSYAMGWYRQAPGKERVLVAAISSSGGSTYYADSVKGRFTISRDNAKNTVYLEMNSLKPEDTAVYYCAAGLGSTSALLYGYWGQGTLVTVSS: high polyreactivity
2. QVQLVESGGGLVQAGGSLRLSCAASGYTIESYGMGWYRQAPGKDREMVAAIDWSGGSTYYADSVKGRFTISRDNAKNTVYLQMNSLIPEDTAVYYCNRDSAGPGDVILAYTGNDYWGQGTQVTVSS: low polyreactivity
3. QVQLVESGGGLVQAAGSLRLSCAASGSIFSANSMGWYRQAPGKERELVAAISGRGTRTYYADSVKGRFTISRDNAKYTVYLQMNSLKPEDTAVYYCNAARDRTSPEYDYWGQGTQVTVSS: high polyreactivity
4. QVQLIESGGGLVQAGGSLRLSCAASGRTFRYNAMGWYRQAPGKERELVAGISTGGSTYYADSVKGRFTISRDNAKNTVYLQMNSLKPEDTAVYYCARYYHARPNGPRSDDYDYWGQGTQVTVSS: low polyreactivity
5. QVQLVESGGGLVQAGGSLRLSCAASGRTFGSNAMGWYRQAPGKERELVAAISGRTDSTYYADSVKGRFTISRDNAKNTVYLQMNSLKPEDTAVFYCAADSGDVLYYYIRYNYWGQGTQVTVSS: low polyreactivity
6. QVQLVESGGGLVQAGGSLRLSCAASGRIFYYNAMGWSRQAPGKEWELVAAITYSGTSTYYAASVKGRFTISRDNAKYTVYLQMNSLKPEDTAVDYCNAEGDNRRDRYDYWGQGTQVTVSS: low polyreactivity
7. QVQLVESGGGLVQAGGSLRLSCAASGRIFIGNAMGWYRQAPGKERELVAAISKRGGSTYYADSVKGRFTISRDNAKNTVYLQMNSLKPEDTAVYYCNKESLYREFDYWGQGTQVTVSS: low polyreactivity
8. QVQLVESGGGLVQAGGSLRLSCAASGITFRGNVMGWYRQAPGKERELVAAISGSSGRTYYADSVKGRFTISRDNAKNTVYLQMYSLKPEDTAVYYCAATRTVRSYSIAPALGYWGQGTQVTVSS: high polyreactivity
9. QVQLVDSGGGLVQAGGSLRLICAASGRTFYYYAMGWYRQAPGKERELVAGISSGVSTTYADSVKGRFTISRDNAKNTVYLQLNSLKPEDTAFYYCAARWRPNRAYIGYDYWGQGTQVTVSS: low polyreactivity
10. QVQLVESGGGLVQAGGSLRLSCAASGSIFYTNAMGWYRQATGKERELVAVITASGGSTYYADSVKGRFTISRDNAKNTVYLQMNSLKPEDTAVYYCAADPVFNYDYWGQGTQVTVSS: low polyreactivity
11. QVQLVESGGGLVQAGGSLRLSCAASGRTFVDYAMGWYRQAPGKERELVAAISSSGASTYYADSVKGRFTISRDNAKNTVYLQMNSLKPEDTAVYYCAARRHRTYGYWGQGTQVTVSS: high polyreactivity
12. QVQLVESGGGLVQAGGSLRLSCAASGRTFESYAMGWYRQAPGTERELVAAITWSGGDTYYADSVKGRFTISRDNAKNTVYLQMNSLKPEETAVYYCAKEQGLYSVSPYDYWGQGTQVTVSS: low polyreactivity
13. QVQLVESGGGLVQAGGSLRLSCAASGSIFVNNAMGWYRQAPGKERELVAAISSRGGSTYYADSVKGRFTISRDNAKNTVYLQMNSLKPEDTAVYYCAAEYDGPYYSFYPEQRYYWGQGTLVTVSS: low polyreactivity
14. QVQLVESGGGLVQAGGSLRLSCAASGSTILKYAMGWYRQAPGKERELVAAITSDGTSYADSVKGRFTISRDNAKNTVYLQMNSLKPEDTAVYYCAIDYRHPTFDYWGQGTQVTVSS: low polyreactivity
15. QVHLVESGGGLVQAGGSLRLSCAASGLTFWAYTLGWYRQAPGQERELVAAITSSGGRTYYADSVKGRFTISRDNAKNTVYLQMNSLKPEDTGVYYCNARIFRSPTPYDYWGQGTQVTVSS: high polyreactivity
16. QVQHVESGGGLVQAGGSLRLSCAASGRIFAYNAMGWYRQAPGKERELVADISSGGNTYYADSVKGRFTISRDNAKNTVYLQMNSLKPEDTAVYYCAADIALYTHYHRIFDYWGQGTQVTVSS: low polyreactivity
17. QVQLVESGGGLVQAGGSLRLSCAASGSTFFGYAMGWYRQAPGKERELVASITWSSGRTNYADSVKGRFTISRDNAKNTVFLQRYSVKPEETAVYYCAQVLDHQLYIDHWVRIYGYWGQGTQVTVSS: low polyreactivity
18. QVQLVESGGGLVQAGGSLRLSCAASGSTFDGNAMGWYRQAPGKERELDAAISWNSGSTYYADSVKGRFTISRDNAKNTVYLQMNSLKPEDTAVYYCAATYGTGRRSKYGYWGQGTQVTVSS: high polyreactivity
19. QVQLVESGGGLVQAGGSLRLSCAASGRIFRYYAMGWYRQAPGKERELVAAISVSGGSTYYADSVKGRFTISRDNAKNTVYLKMNSLKPEDTAVYYCAARIKTYSKRYYWGQATQVTVSS: high polyreactivity
20. QVQLVESGGGLVQAGGSLRLSCAASGRTFADYAMGWYRQAPGKERELVATIRKSTGTTYYADSVKGRFTISRDNAKNTVYLQMNSLKPEDTAVYYCAAARSRYSRWRVEYWGQGTQVTVSS: high polyreactivity
21. QVQLVESGGGLVQAGGSLRLSCAASGFTLKQYAMGWYRQAPGKERELVAAIRWSGGSTNYADSVKGRFTISRDNAKNTVYLQMNSLKPEDTAVYYCAADFRTPYFGIRYGYWGQGTQVTVSS: high polyreactivity
